I'd appreciate it if you could supply minimal effective dose values for the items below.
Test system: Anxiety in the Adult Male Rat
experimental_details: Suppression of Anxiety in the Adult Male Rat (rat conflict test)
Format: in vivo, rats
condition_set: Rattus norvegicus, po, rat, po; read-out: Rat Conflict (MED, mg/kg) po

The following compounds have reported results that may help.
[
  {
    "compound": "CCOCCN1C2=C(C(=O)Nc3nccs3)C(=O)CCN2c2ccc(F)cc21 [Compound 141]",
    "minimal effective dose": "> 3 mg/kg"
  },
  {
    "compound": "COCCN1C2=C(C(=O)Nc3ccccc3F)C(=O)CCN2c2ccccc21 [Compound 153]",
    "minimal effective dose": "≤ 1 mg/kg"
  },
  {
    "compound": "COCCN1C2=C(C(=O)Nc3sccc3Cl)C(=O)CCN2c2ccc(F)cc21 [Compound 138]",
    "minimal effective dose": "> 10 mg/kg"
  },
  {
    "compound": "O=C1CCN2C(=C1C(=O)Nc1ccccc1F)N(CC1CCCO1)c1cc(F)ccc12 (centres unmarked) [Compound 175]",
    "minimal effective dose": "> 10 mg/kg"
  },
  {
    "compound": "CC1(CN2C3=C(C(=O)Nc4ccccc4F)C(=O)CCN3c3ccc(F)cc32)COC1 [Compound 180]",
    "minimal effective dose": "> 10 mg/kg"
  },
  {
    "compound": "O=C1CCN2C(=C1C(=O)Nc1ccccc1F)N(CCO)c1c(O)cccc12 [Compound 94]",
    "minimal effective dose": "> 10 mg/kg"
  },
  {
    "compound": "O=C1CCN2C(=C1C(=O)Nc1ccccc1F)N(CCN1CCNCC1)c1cc(F)ccc12 [Compound 81]",
    "minimal effective dose": "> 10 mg/kg"
  },
  {
    "compound": "CN(CCN1C2=C(C(=O)Nc3ccccc3F)C(=O)CCN2c2ccc(F)cc21)Cc1ccc(F)cc1 [Compound 62]",
    "minimal effective dose": "> 10 mg/kg"
  },
  {
    "compound": "CC(C)(C)OC(=O)CN1C2=C(C(=O)Nc3ccccc3F)C(=O)CCN2c2ccc(F)cc21 [Compound 176]",
    "minimal effective dose": "> 10 mg/kg"
  },
  {
    "compound": "CCOCN1C2=C(C(=O)Nc3ccc(OCc4ccccc4)cc3F)C(=O)CCN2c2ccc(F)cc21 [Compound 92]",
    "minimal effective dose": "> 3 mg/kg"
  }
]

Now turn to the next compound.
Q: Determine from records and report minimal effective dose for COCCN1C2=C(C(=O)Nc3ccccc3F)C(=O)CCN2c2cccc(OC)c21 [Compound 96]
Result: > 10 mg/kg
